Test system: CCRF-CEM
Experiment: Cell cycle arrest in human CCRF-CEM assessed as accumulation at S phase at 5 x GIC50 after 24 hrs by flow cytometry
Assay type: functional
Consider the following compounds; for each one, report its Activity.
Numbers only, in %.

Provide Activity values for the following items, in order.
1. OC[C@H]1O[C@@H](n2ccc3c(-c4ccoc4)ncnc32)[C@H](O)[C@@H]1O
2. OC[C@H]1O[C@@H](n2ccc3c(-c4ccco4)ncnc32)[C@H](O)[C@@H]1O
3. OC[C@H]1O[C@@H](n2ccc3c(-c4cccs4)ncnc32)[C@H](O)[C@@H]1O
4. OC[C@H]1O[C@@H](n2cc(F)c3c(-c4cccs4)ncnc32)[C@H](O)[C@@H]1O
5. Nc1ccn([C@@H]2O[C@H](CO)[C@@H](O)C2(F)F)c(=O)n1

Result:
[39.7, 44.6, 47, 50.5, 30.5]

Ask: Activity of `Nc1nc(Cl)nc2c1ncn2[C@H]1C[C@H](O)[C@@H](CO)O1` on CCRF-CEM?
Result: 30.8
